Entries annotated with measured Emax
target-system: Trace amine-associated receptor 1 (Homo sapiens)
assay-name: Agonist activity at human TAAR1 extracted from CHO-K1 cell membrane coexpressing AGTRL1/Gi by measuring maximum efficacy at 0 to 100 uM by cAMP assay relative to control
Type: functional, cell membranes
setup-conditions: filed as agonist, dose 0-100 µM
Your answer is read as %, so omit the unit and give the number.

Emax for FC(F)COc1ccsc1C1CNCCO1 (racemic) is 75.2

Emax for CCc1[nH]nc(C(=O)Nc2ccc([C@H]3CNCCO3)cc2)c1C [RALMITARONT] is 66

Emax for CNCC1OCCc2ccoc21 (racemic) is 105

Emax for CNCC1OC(C)(C)Cc2ccsc21 (racemic) is 99.6

Hey, just so you know, these numbers are from ChEMBL document CHEMBL6109139.
